Hey, just so you know, these numbers are from paper PMC6792352.

- Protocol details: in vitro
- Study conditions: rat, gh3-tre-luc cells, AC50 (uM) modified / 1000, Tox21_110001=Tox21_202866; viability, 1 nM T3 present, 24 h
Measurement type: CC50 at 24 h

Requested field: CC50 at 24 h. Item: ClCCCCBr
> 90 µM

###

- Protocol details: in vitro
- Study conditions: rat, gh3-tre-luc cells, AC50 (uM) modified / 1000, Tox21_110001=Tox21_113494; viability, 1 nM T3 present, 24 h
Structures can show the parent of a compound that is named as a salt.
Measurement type: CC50 at 24 h (µM)
Provide the reading as a plain figure in µM.

Give the measured CC50 at 24 h of COc1cc(CC(C)N)c(OC)cc1Br (stereo not shown) [Brolamfetamine hydrobromide] .
25.6
